Molecular target: human kinase Mps-1 (Homo sapiens, UniProt P33981)
Construct: N-terminally GST-tagged human full length recombinant Mps-1 kinase; purchased Invitrogen, Karslruhe, Germany PV4071
Sequence (P33981 1-857): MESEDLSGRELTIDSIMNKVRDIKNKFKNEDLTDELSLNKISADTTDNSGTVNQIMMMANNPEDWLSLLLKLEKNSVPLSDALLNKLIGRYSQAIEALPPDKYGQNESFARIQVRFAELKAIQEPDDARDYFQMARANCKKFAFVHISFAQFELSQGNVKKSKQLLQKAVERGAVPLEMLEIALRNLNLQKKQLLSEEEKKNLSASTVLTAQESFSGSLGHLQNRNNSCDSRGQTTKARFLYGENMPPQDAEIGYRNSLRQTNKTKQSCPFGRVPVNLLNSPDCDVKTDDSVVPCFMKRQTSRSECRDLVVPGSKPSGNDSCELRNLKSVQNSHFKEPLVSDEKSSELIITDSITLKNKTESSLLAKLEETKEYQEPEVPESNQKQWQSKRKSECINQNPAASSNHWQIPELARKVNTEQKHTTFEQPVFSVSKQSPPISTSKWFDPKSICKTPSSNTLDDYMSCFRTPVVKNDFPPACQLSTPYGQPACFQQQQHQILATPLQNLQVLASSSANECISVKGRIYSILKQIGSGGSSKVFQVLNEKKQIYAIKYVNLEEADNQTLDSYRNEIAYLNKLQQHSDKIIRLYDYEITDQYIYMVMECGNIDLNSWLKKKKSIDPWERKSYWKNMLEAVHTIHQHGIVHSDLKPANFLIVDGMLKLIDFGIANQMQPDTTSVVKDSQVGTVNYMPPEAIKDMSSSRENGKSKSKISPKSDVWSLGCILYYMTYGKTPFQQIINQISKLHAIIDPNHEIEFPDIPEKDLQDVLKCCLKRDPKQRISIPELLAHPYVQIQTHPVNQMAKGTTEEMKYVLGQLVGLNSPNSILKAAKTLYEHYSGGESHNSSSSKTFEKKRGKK
Experiment: Mps-1 kinase assay (HTRF)
Format: biochemical
Conditions: lowATP; mean; read-out: Mps1 lowATP mean IC50
value-type: IC50 (nM)
// return numeric value only (unit: nM, not printed)

Please review the following examples before continuing.
>  <compound>
CNC(=O)Nc1ccc(-c2cnc3c(NCC4CC4)nc4cc(F)c(F)cc4n23)cc1

>  <measurement-target>
human kinase Mps-1 (Homo sapiens, UniProt P33981)

>  <value-type>
IC50

>  <experimental-result>
5860

$$$$
>  <compound>
CCNc1nc2cc(C)c(C)cc2n2c(-c3ccc(NC(=O)NC)cc3)cnc12

>  <measurement-target>
human kinase Mps-1 (Homo sapiens, UniProt P33981)

>  <value-type>
IC50

>  <experimental-result>
134

$$$$
>  <compound>
Cc1cc2nc(NC[C@@H](O)CO)c3ncc(-c4ccc(C(=O)NC5CC5)cc4)n3c2cc1C (stereo in doubt)

>  <measurement-target>
human kinase Mps-1 (Homo sapiens, UniProt P33981)

>  <value-type>
IC50

>  <experimental-result>
12.4

$$$$
>  <compound>
CCCNc1nc2cc(C)c(C)cc2n2c(-c3ccc(C(=O)NC4CC4)c(Cl)c3)cnc12

>  <measurement-target>
human kinase Mps-1 (Homo sapiens, UniProt P33981)

>  <value-type>
IC50

>  <experimental-result>
24.8

$$$$
>  <compound>
CC(C)CNc1nc2ccccc2n2c(-c3ccc(C(=O)NCCCN4CCCC4=O)cc3)cnc12

>  <measurement-target>
human kinase Mps-1 (Homo sapiens, UniProt P33981)

>  <value-type>
IC50

>  <experimental-result>
15300

$$$$
>  <compound>
O=C(NC1CC1)c1ccc(-c2cnc3c(NCC4CC4)nc4cc(F)c(F)cc4n23)cc1

>  <measurement-target>
human kinase Mps-1 (Homo sapiens, UniProt P33981)

>  <value-type>
IC50

>  <experimental-result>
34.1

$$$$
>  <compound>
O=C(NC1CC1)c1ccc(-c2cnc3c(NCc4cccc(F)c4)nc4ccccc4n23)cc1

>  <measurement-target>
human kinase Mps-1 (Homo sapiens, UniProt P33981)

>  <value-type>
IC50

>  <experimental-result>
90

$$$$

Request: # returns recorded IC50 (system: human kinase Mps-1 (Homo sapiens, UniProt P33981)) for CC(C)CNc1nc2ccccc2n2c(-c3ccc(C(=O)NC4CC4)c(Cl)c3)cnc12
Result: 367
